- Tested on: 945468-187-T-J2-PDC spheroids viability;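 also: spheroids exposed to compounds for seven days before reading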
- ASSAY OVERVIEW: Anticancer human tumor 945468-187-T-J2-PDC patient-derived rectal carcinoma cell line growth inhibition [PI3K]
- CONDITION: second compound 0.1 µM; first compound 3.16 µM; stronger effect = lower value; spheroids with HUVEC and MSC
REPORTED METRIC: viability, T/C (%)
Express it in %; write the number only.

Below, 4 molecules whose answers are already recorded.
MOLECULE: C[C@@H](NC(=O)c1ncnc(N)c1Cl)c1ncc(C(=O)Nc2cc(C(F)(F)F)c(Cl)cn2)s1 + CC(Nc1ncnc2nc[nH]c12)c1cc2cccc(Cl)c2c(=O)n1-c1ccccc1
RESULT UNITS: %
NUMERIC VALUE: 121
--
MOLECULE: Cn1nccc1Nc1nccc(-c2ccn(C(CO)c3ccc(Cl)c(F)c3)c(=O)c2)n1 (stereo not given) + CC(Nc1ccc2c(c1)OCCn1cc(N3C(=O)OCC3C(F)F)nc1-2)C(N)=O
RESULT UNITS: %
NUMERIC VALUE: 101
--
MOLECULE: CNC(=O)c1ccc(N2C(=S)N(c3ccc(C#N)c(C(F)(F)F)c3)C(=O)C2(C)C)cc1F + COc1c(OCCCN2CCOCC2)ccc2c3n(c(=NC(=O)c4cnc(N)nc4)nc12)CCN3
RESULT UNITS: %
NUMERIC VALUE: 82
--
MOLECULE: CC1(C)CCC(Nc2ncc(C(F)(F)F)c(-c3c[nH]c4c(P(C)(C)=O)c(C#N)ccc34)n2)CN1 (stereo not given) + CC(Nc1ncnc2nc[nH]c12)c1cc2cccc(Cl)c2c(=O)n1-c1ccccc1
RESULT UNITS: %
NUMERIC VALUE: 33.9

# next molecule below
Query string: Enter viability, T/C (test system 945468-187-T-J2-PDC spheroids viability) for CNC(=O)c1ccc(N2C(=S)N(c3ccc(C#N)c(C(F)(F)F)c3)C(=O)C2(C)C)cc1F + Cc1nc(NC(=O)N2CCCC2C(N)=O)sc1-c1ccnc(C(C)(C)C(F)(F)F)c1;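 also: spheroids exposed to compounds for seven days before reading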
Result string: 102
